// data source = ChEMBL document CHEMBL2062434

assay: Cytotoxicity against human Fa2N-4 cells after 24 hrs by MTT assay; assay type: cell-based; conditions: Fa2N-4, 24 h
Where a SMILES comes first, the peptide text is derived from it. [ ]: non-standard residue; d: D form. NMeF = CN[C@@H](Cc1ccccc1)C(=O)O
OUTCOME MEASURE: IC50

* CC[C@H](C)[C@@H]1NC(=O)[C@H](Cc2ccccc2)N(C)C(=O)[C@H]([C@@H](C)CC)NC(=O)[C@H](Cc2ccccc2)N(C)C1=O (cyclo(I[NMeF]I[NMeF])) | > 20 µM
* CC[C@H](C)[C@@H]1NC(=O)[C@H](Cc2ccccc2)N(C)C(=O)[C@H](C(C)C)NC(=O)[C@H](Cc2ccccc2)N(C)C1=O (cyclo(I[NMeF]V[NMeF])) | > 20 µM
* CC(C)[C@@H]1NC(=O)[C@H](Cc2ccccc2)N(C)C(=O)[C@H](C(C)C)NC(=O)[C@H](Cc2ccccc2)N(C)C1=O (cyclo([NMeF]V[NMeF]V)) | > 20 µM
